All figures here come from PubChem BioAssay AID1159580.

Would you mind telling me the reported normalized growth of each entry?
Experiment: chemical genetic growth profiling, strain panel (AID 1159580);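 further: tested at 20 µM; growth read once vehicle control cultures reached saturation at 30 °C; 1 = growth at the plate median or of vehicle wells; lower values mean less growth of the strain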
Settings: S. cerevisiae deletion strains, growth OD, locus YNL298W, strain CLA4 (second series), active compounds read low
Hit rate of the full screen: of about 5,500 compounds, about 2,000 (36%) were called active. Another 18% or so got no clear call; they are omitted. The list shows a part of the results.
Enter the number alone.

Respond only with normalized growth recorded for COc1ccccc1N1CCN(Cc2ccc(F)cc2)CC1
1.05

Respond only with normalized growth recorded for NC(=O)CCSCCC(N)=O
0.988

Respond only with normalized growth recorded for CC(C)(C)OC(=O)N1CCN(Cc2ccccc2)CC1
1.01

Respond only with normalized growth recorded for O=C1NC(c2c(F)cccc2Cl)Nc2ccccc21 (configuration not stated)
0.979

Respond only with normalized growth recorded for COC(=O)c1ccc(C#Cc2ccccc2)o1
0.654

Respond only with normalized growth recorded for CCCCCCCC1CC/C(=C\c2ccc(/C=C3\CCC(CCCCCCC)C3=O)cc2)C1=O (configuration not stated)
1.04

Respond only with normalized growth recorded for O=C1CC(c2ccccc2)=NO1
0.797

Respond only with normalized growth recorded for c1ccc(CSC2=NCCCN2)cc1
1.05

Respond only with normalized growth recorded for COc1ccc(OC)c(S(=O)(=O)NCc2c(F)cccc2Cl)c1
1.02

Respond only with normalized growth recorded for O=C1c2cccc3c(SCCO)ccc(c23)C(=O)N1CCc1ccccn1
0.993

Respond only with normalized growth recorded for Cc1ccc(CS/C(N)=N\N)cc1
0.963

Respond only with normalized growth recorded for O=S(=O)(c1cc(Br)c(Br)s1)N1CCCCC1
1.02

Respond only with normalized growth recorded for COC(=O)c1ccc(-c2ccccc2F)cc1
0.897

Respond only with normalized growth recorded for O=C(CC(Nc1ccccc1)c1ccccc1)C1CC1 (configuration not stated)
0.985

Respond only with normalized growth recorded for Cc1cccc2nc(-c3ccccc3)oc(=O)c12
0.95

Respond only with normalized growth recorded for CCOC(=O)c1c(C)csc1N
0.967

Respond only with normalized growth recorded for COC(=O)c1ccc(S(=O)(=O)NCc2ccccc2)n1C
1.03

Respond only with normalized growth recorded for COC(=O)c1cc(OC)c(OC)cc1NS(=O)(=O)c1ccc(C)cc1
0.962

Respond only with normalized growth recorded for CN(C)c1ccc(/C=N\NC(=O)CCc2ccc(O)cc2)c(Cl)c1
0.999

Respond only with normalized growth recorded for S=c1[nH]c2ccccc2[nH]1
0.997

Respond only with normalized growth recorded for CCOC(=O)CC(=O)Nc1scc(C)c1C(=O)OCC
0.934

Respond only with normalized growth recorded for S=C(NCCCn1ccnc1)Nc1cc(Cl)ccc1Cl
0.971

Respond only with normalized growth recorded for Cc1onc(-c2ccccc2Cl)c1C(=O)Nc1ccc(S(=O)(=O)Nc2nccs2)cc1
0.949

Respond only with normalized growth recorded for COC(=O)c1ccc(C(=O)OC)nc1
1

Respond only with normalized growth recorded for CC(=O)c1ccc(-c2ccc(C(C)=O)cc2)cc1
1.01

Respond only with normalized growth recorded for O=C(CCN1CCOCC1)c1ccc2c(c1)OCCO2
0.852

Respond only with normalized growth recorded for CCNS(=O)(=O)c1cc(Cl)sc1Cl
1.05
